tested on: Vero E6 infected with SARS-CoV-2; assay: inhibition of SARS-CoV-2 cytopathic effect; higher = more antiviral protection, active = above 15; conditions: 100 nM; 48 h
value.kind: inhibition of SARS-CoV-2 cytopathic effect (%)

INSERT INTO assay_data (smiles_text, scale_unit, val) VALUES
  ('CC(C)c1ccc(C(=O)c2cccs2)c(SCCCCCCCCN(C)C)n1', '%', 2.39),
  ('CC(C)C(=O)OC[C@@]1(N=[N+]=[N-])O[C@@H](n2ccc(N)nc2=O)[C@H](OC(=O)C(C)C)[C@@H]1OC(=O)C(C)C', '%', 0.61),
  ('CCCNS(=O)(=O)Nc1ncnc(OCCOc2ncc(Br)cn2)c1-c1ccc(Br)cc1', '%', -0.9),
  ('C[N+](C)(C)CCCCCNCC12CC3CC(CC(C3)C1)C2', '%', -6.53),
  ('C[C@@H](CN1CC(=O)NC(=O)C1)N1CC(=O)NC(=O)C1', '%', 2.19),
  ('CN(Cc1ccccc1)C(=O)[C@H](Cc1ccc2ccccc2c1)NC(=O)[C@@H]1C[C@@H](O)CN1C(=O)c1cn(C)c2ccccc12', '%', 3.48),
  ('Nc1ncnc2c1ncn2[C@@H]1O[C@@H]2COP(=O)(O)O[C@H]2[C@H]1O', '%', -1.76),
  ('CCn1cc(C(=O)O)c(=O)c2cc(F)c(N3CCN(C)CC3)cc21', '%', 2.84),
  ('CC(C)C[C@@H](N)C1(c2ccc(Cl)cc2)CCC1', '%', -2.87);

====

test system: Vero E6 infected with SARS-CoV-2; assay: inhibition of SARS-CoV-2 cytopathic effect; higher = more antiviral protection, active = above 15; conditions: 833.33 nM; 48 h
value.kind: inhibition of SARS-CoV-2 cytopathic effect (%)

INSERT INTO measurements (compound, val) VALUES
  ('Cc1cc(OCc2nc(-c3ccccc3Cl)cs2)ccc1OCC(=O)O [GPR120-modulator-1]', -1.62),
  ('CN(C)CCN(Cc1cccs1)c1ccccn1 [methapyrilene]', -3.33),
  ('Cn1nnc(-c2ccc(-c3ccc(N4C[C@H](COP(=O)(O)O)OC4=O)cc3F)cn2)n1 [tedizolid-phosphate]', 1.74),
  ('CC1(C)CC(Oc2ccc(-c3ccc(-c4cn[nH]c4)cc3O)nn2)CC(C)(C)N1', -9.03),
  ('Cc1ccccc1CN1C(=O)C2=C(CCN(Cc3ccccc3)C2)N2CCN=C12', 3.83),
  ('CCCc1nc(C)c2c(=O)nc(-c3cc(S(=O)(=O)N4CCN(CC)CC4)ccc3OCC)[nH]n12 [vardenafil]', -0.81),
  ('Nc1cccc(-c2cc3c(Oc4cccc(O)c4)ncnc3[nH]2)c1', -3.87),
  ('COC(=O)C1=C(C)NC(C)=C(C(=O)OC)C1c1ccccc1[N+](=O)[O-] [nifedipine]', 3.23),
  ('N=C(N)c1ccc(/C=C/c2ccc(C(=N)N)cc2O)cc1 [hydroxystilbamidine]', -3.2);

====

tested on: Vero E6 infected with SARS-CoV-2; assay: SARS-CoV-2 infection rate relative to infected DMSO; higher = more infection, active = 60 or less; details: 24 h
value.kind: SARS-CoV-2 infection rate (%)

INSERT INTO measurements (compound, value_kind, val) VALUES
  ('CCCCCCCCCCCC[N+](C)(C)CCOc1ccccc1 [domiphen] (10 µM)', 'SARS-CoV-2 infection rate', 87),
  ('Cc1ncc([N+](=O)[O-])n1CC(O)CN1CCOCC1 (centres undefined) [morinidazole] (10 µM)', 'SARS-CoV-2 infection rate', 111),
  ('CC(C)(C)CC(C)(C)c1ccc(O)c(Cc2ccc(Cl)cc2Cl)c1 [clofoctol] (10 µM)', 'SARS-CoV-2 infection rate', 94),
  ('Cc1ccc(/C=N/NC(=O)c2ccccc2Oc2ccccc2)o1 (10 µM)', 'SARS-CoV-2 infection rate', 82.5),
  ('COc1cc(C#N)ccc1S(=O)(=O)Nc1ccc2c(c1)cc(C)c(=O)n2C (10 µM)', 'SARS-CoV-2 infection rate', 102),
  ('COc1nccc(-c2c(-c3ccc(F)cc3)ncn2[C@H]2CC[C@H](O)CC2)n1 (10 µM)', 'SARS-CoV-2 infection rate', 85),
  ('[NH-]c1c[n+](N2CCOCC2)no1 [linsidomine] (10 µM)', 'SARS-CoV-2 infection rate', 117),
  ('Nc1ccn(C[C@@H](CO)OCP(=O)(O)O)c(=O)n1 [cidofovir] (10 µM)', 'SARS-CoV-2 infection rate', 108),
  ('CN(C)C/C=C/C(=O)Nc1ccc(C(=O)Nc2cccc(Nc3ncc(Cl)c(-c4c[nH]c5ccccc45)n3)c2)cc1 (10 µM)', 'SARS-CoV-2 infection rate', 94);
